- Protocol Notes: Inhibition of human recombinant ribonucleotide reductase expressed in BL21 (DE3) bacteria assessed as conversion of [3H]CDP to [3H]dCDP
Recorded Metric: pIC50
By convention, pIC50 is the negative base-10 log of a molar concentration.

Use these answered entries as a reference point.
[[record]]
compound = "NC(=S)N/N=C/c1ncccc1N [TRIAPINE]"
numeric_result = 5.65

[[record]]
compound = "Cc1ccc(NC(=S)N/N=C/c2ccc(O)cc2)cc1"
numeric_result = 4.85

[[record]]
compound = "O=[N+]([O-])c1ccccc1NC(=S)N/N=C/c1ccc(O)cc1"
numeric_result = 4.41


# evaluate next
# input compound: "O=[N+]([O-])c1ccc(NC(=S)N/N=C/c2ccc(O)cc2)cc1" ; wanted: its pIC50 4.35
